PBM binding z-score reference
test system: PPARg:RXRa (NR concentration 180 nM, RXRa partner concentration 90 nM); assay: PBM binding z-score (relative to random genomic background probes); higher = stronger binding; sequences stand for … in GC…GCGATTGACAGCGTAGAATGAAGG

>>> reported_result("AGAATGAGGTTAAGATCAAGGAAACAGAATACAT")
2.49
>>> reported_result("CCTAGCAGGCCAGGATCACTCAAGCATTTCGCTT")
-0.143
>>> reported_result("ATATGTAGGTTAAGGGGCATTCAGGTTGGTTCGC")
9.21
>>> reported_result("TCGAGTAGGTTACCATTGGGGCATTCAGCTTTCT")
0.0586

Task: Recall the recorded PBM binding z-score for CGAACTAGGTCATTGACAGGATAGTGAATAGTAA with PPARg:RXRa (NR concentration 180 nM, RXRa partner concentration 90 nM) and state it.
Output: 7.71

Task: Recall the recorded PBM binding z-score for TCGAGTAGGTTACCAATGGGCCATTCAGCTTTCT with PPARg:RXRa (NR concentration 180 nM, RXRa partner concentration 90 nM) and state it.
Output: 0.383

Task: Recall the recorded PBM binding z-score for TCTTGTGGATCAAAGGTTAAGAAAGCCGAAGCCT with PPARg:RXRa (NR concentration 180 nM, RXRa partner concentration 90 nM) and state it.
Output: 7.94

Task: Recall the recorded PBM binding z-score for CGAACTAGGTCAGAACAGGAAAGTGAAGGATGAT with PPARg:RXRa (NR concentration 180 nM, RXRa partner concentration 90 nM) and state it.
Output: 5.08

Task: Recall the recorded PBM binding z-score for GCGACTGGGGCAAAGCAGGTTACGATAAGGTTGG with PPARg:RXRa (NR concentration 180 nM, RXRa partner concentration 90 nM) and state it.
Output: 1.32

Task: Recall the recorded PBM binding z-score for ACTAACGGGTCAACGAGGTTATAGCACGCGTATA with PPARg:RXRa (NR concentration 180 nM, RXRa partner concentration 90 nM) and state it.
Output: 4.64

Task: Recall the recorded PBM binding z-score for GATAAAGGGTCAAGGCCAGAGTACGCGTATTGAT with PPARg:RXRa (NR concentration 180 nM, RXRa partner concentration 90 nM) and state it.
Output: 6.56

Task: Recall the recorded PBM binding z-score for CCTTACGGGTCGAGGTTATAGCACGGGTGGTACG with PPARg:RXRa (NR concentration 180 nM, RXRa partner concentration 90 nM) and state it.
Output: 0.822

Task: Recall the recorded PBM binding z-score for CGTCCAACGTCATAGGAGGTCAGTGAAGACAGAT with PPARg:RXRa (NR concentration 180 nM, RXRa partner concentration 90 nM) and state it.
Output: 0.683

Task: Recall the recorded PBM binding z-score for TAATATAGGTAATACAGGTGAAAGTCGGCATCTA with PPARg:RXRa (NR concentration 180 nM, RXRa partner concentration 90 nM) and state it.
Output: 3.18

Task: Recall the recorded PBM binding z-score for CGTTCAAGGTCAAGGTCAGTGAAAGAGACTCGAA with PPARg:RXRa (NR concentration 180 nM, RXRa partner concentration 90 nM) and state it.
Output: 6.87

Task: Recall the recorded PBM binding z-score for TCTTGTAGATCAAGAGAGGTTAAGAAAGTGCGCT with PPARg:RXRa (NR concentration 180 nM, RXRa partner concentration 90 nM) and state it.
Output: -0.217

Task: Recall the recorded PBM binding z-score for CCTACTGCGCCACGAAAGGTCATTGATTCAGTGA with PPARg:RXRa (NR concentration 180 nM, RXRa partner concentration 90 nM) and state it.
Output: 1.08

Task: Recall the recorded PBM binding z-score for CGAACGAGGGCATCAGTTGATAGCAAATGCCGAT with PPARg:RXRa (NR concentration 180 nM, RXRa partner concentration 90 nM) and state it.
Output: 1.1
